species on record: Rattus norvegicus; experiment: Open TG-GATES - Regimen: Single; type: toxicity, organism-based, Sprague-Dawley; parameters: regimen Single, gender Male, age 6 weeks; conditions: in vivo, po, 0 mg/kg, 3 h, tissue Blood, route gavage, dose level Control
Please go through the items and note down their RBC.
Give bare numbers, in x10_4/ul.

# annotated cases, reported RBC shown
>>> measured_value("CN(C)CCC=C1c2ccccc2COc2ccccc21 [DOXEPIN]")
644
>>> measured_value("CC[C@H]1[C@@H]2C[C@H]3[C@@H]4N(C)c5ccccc5[C@]45C[C@@H]([C@@H]2[C@H]5O)N3[C@@H]1O")
589.2
>>> measured_value("O=NN(CCCl)C(=O)NC1CCCCC1")
599.2
>>> measured_value("CN(C)C(=N)N=C(N)N")
606.6

Turning now to a further record.
### Prompt GET /values?readout=RBC&item= CC(C)N(CCC(C(N)=O)(c1ccccc1)c1ccccn1)C(C)C (stereo not given) [DISOPYRAMIDE]
### Response 638.6

* * *

species: Rattus norvegicus; test: Open TG-GATES - Regimen: Daily Repeat; type: toxicity, organism-based, Sprague-Dawley; design: regimen Daily Repeat, gender Male, age 6 weeks; conditions: in vivo, po, 0 mg/kg, […], tissue Plasma, route gavage, dose level Control, time 28 day
Answer each item with its documented A/G.

Known results for molecules:
>>> measured_value("ClC(Cl)(Cl)Cl [CARBON TETRACHLORIDE]")
1.4
>>> measured_value("CC[C@H]1[C@@H]2C[C@H]3[C@@H]4N(C)c5ccccc5[C@]45C[C@@H]([C@@H]2[C@H]5O)N3[C@@H]1O")
1.9
>>> measured_value("CC1=C(CC(=O)O)c2cc(F)ccc2/C1=C\\c1ccc([S+](C)[O-])cc1 (configuration not stated)")
0.8
>>> measured_value("CCC1(c2ccccc2)C(=O)NC(=O)NC1=O")
1.5
>>> measured_value("CCc1oc2ccccc2c1C(=O)c1cc(Br)c(O)c(Br)c1")
1.6

Please give A/G, item by item, for the list that follows.
1. O=NN(CCCl)C(=O)NC1CCCCC1
2. OCCOCCN1CCN(C(c2ccccc2)c2ccc(Cl)cc2)CC1 (configuration not stated) [HYDROXYZINE]

### Response
1. 1.6
2. 0.8

* * *

species on record: Rattus norvegicus; experiment: Open TG-GATES - Regimen: Single; format: toxicity, organism-based, Sprague-Dawley; parameters: regimen Single, gender Male, age 6 weeks; conditions: in vivo, po, 0 mg/kg, 3 h, tissue Blood, route gavage, dose level Control
Provide the recorded Fbg for the entries that follow.
Give bare numbers, in mg/dL.

Look over these answered cases.
>>> measured_value("OCCOCCN1CCN(C(c2ccccc2)c2ccc(Cl)cc2)CC1 (stereo not given) [HYDROXYZINE]")
287
>>> measured_value("CCc1oc2ccccc2c1C(=O)c1cc(Br)c(O)c(Br)c1 [BENZBROMARONE]")
226.8
>>> measured_value("CC1=C(CC(=O)O)c2cc(F)ccc2/C1=C\\c1ccc([S+](C)[O-])cc1 (stereo not given)")
275
>>> measured_value("CN(C)C(=N)N=C(N)N [METFORMIN]")
245.6
>>> measured_value("CC(C)N(CCC(C(N)=O)(c1ccccc1)c1ccccn1)C(C)C (stereo not given) [DISOPYRAMIDE]")
318.8
>>> measured_value("CC[C@H]1[C@@H]2C[C@H]3[C@@H]4N(C)c5ccccc5[C@]45C[C@@H]([C@@H]2[C@H]5O)N3[C@@H]1O [AJMALINE]")
202.8

Report Fbg for every entry below.
1. O=NN(CCCl)C(=O)NC1CCCCC1 [LOMUSTINE]
2. ClC(Cl)(Cl)Cl [CARBON TETRACHLORIDE]

### Response
1. 207.8
2. 245

# batch size: 2; output Fbg per entry
1. CN(C)CCC=C1c2ccccc2COc2ccccc21 [DOXEPIN]
2. CCC1(c2ccccc2)C(=O)NC(=O)NC1=O [PHENOBARBITAL]

### Response
1: 250.4; 2: 219.2
